Entry source: patent US20220356174A1

biological target: FL-SMARCA2 (full-length human SMARCA2 isoform 1) (Homo sapiens, UniProt P51531); construct: FLAG tag (YKDDDDK) (C); made in house; host or cells: Sf21 insect cells (baculovirus, pFastBacI); assay: SMARCA2 ATPase activity assay (ADP-Glo, chicken mononucleosome substrate); format: biochemical; conditions: Table 3c.1; ATPase assay, enzyme 5 nM, ATP 250 uM, chicken mononucleosome 10 nM, 30 min preincubation
Sequence (P51531 with tags, fused parts or gaps): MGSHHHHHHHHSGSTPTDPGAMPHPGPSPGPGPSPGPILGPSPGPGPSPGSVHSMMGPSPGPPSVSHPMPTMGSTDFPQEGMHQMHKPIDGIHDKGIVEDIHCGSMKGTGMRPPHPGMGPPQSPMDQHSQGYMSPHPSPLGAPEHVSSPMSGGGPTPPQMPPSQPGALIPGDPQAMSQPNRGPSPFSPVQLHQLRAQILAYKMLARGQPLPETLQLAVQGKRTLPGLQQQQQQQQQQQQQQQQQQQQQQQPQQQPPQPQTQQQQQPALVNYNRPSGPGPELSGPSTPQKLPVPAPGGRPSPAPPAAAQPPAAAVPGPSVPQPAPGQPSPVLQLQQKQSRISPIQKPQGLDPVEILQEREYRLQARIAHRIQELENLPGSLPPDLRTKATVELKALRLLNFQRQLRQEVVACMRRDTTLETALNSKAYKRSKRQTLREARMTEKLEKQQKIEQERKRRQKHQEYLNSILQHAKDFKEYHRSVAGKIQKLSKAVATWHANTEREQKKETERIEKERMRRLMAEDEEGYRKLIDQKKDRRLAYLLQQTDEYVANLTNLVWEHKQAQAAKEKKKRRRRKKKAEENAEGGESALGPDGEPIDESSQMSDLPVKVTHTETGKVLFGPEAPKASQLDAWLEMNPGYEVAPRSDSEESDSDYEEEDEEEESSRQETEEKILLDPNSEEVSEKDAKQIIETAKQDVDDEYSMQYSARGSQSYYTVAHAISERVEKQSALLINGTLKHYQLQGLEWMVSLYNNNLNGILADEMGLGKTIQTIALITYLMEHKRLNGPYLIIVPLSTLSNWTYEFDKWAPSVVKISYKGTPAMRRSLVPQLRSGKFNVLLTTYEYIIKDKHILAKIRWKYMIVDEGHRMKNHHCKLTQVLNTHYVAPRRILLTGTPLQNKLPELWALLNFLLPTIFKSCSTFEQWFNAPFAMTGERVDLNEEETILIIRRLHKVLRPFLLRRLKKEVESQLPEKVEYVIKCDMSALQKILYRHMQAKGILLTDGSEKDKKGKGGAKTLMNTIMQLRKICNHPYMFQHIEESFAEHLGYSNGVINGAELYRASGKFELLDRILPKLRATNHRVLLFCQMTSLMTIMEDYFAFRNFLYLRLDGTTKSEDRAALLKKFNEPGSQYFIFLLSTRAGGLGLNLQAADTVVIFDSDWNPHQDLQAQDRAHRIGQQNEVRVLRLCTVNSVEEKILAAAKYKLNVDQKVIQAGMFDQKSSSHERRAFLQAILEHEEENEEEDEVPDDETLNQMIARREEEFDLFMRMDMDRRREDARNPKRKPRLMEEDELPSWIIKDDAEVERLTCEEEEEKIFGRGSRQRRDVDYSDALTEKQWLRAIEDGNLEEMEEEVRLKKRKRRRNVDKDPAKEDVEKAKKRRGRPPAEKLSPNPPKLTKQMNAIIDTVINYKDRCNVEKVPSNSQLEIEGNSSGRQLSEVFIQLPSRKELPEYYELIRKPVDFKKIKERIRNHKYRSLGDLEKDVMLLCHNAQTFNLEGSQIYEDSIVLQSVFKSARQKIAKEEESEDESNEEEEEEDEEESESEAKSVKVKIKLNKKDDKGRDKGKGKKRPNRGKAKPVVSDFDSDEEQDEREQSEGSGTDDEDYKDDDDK
Assign labels as follows, please: T for IC50 below 30 nM; F for IC50 equal to or exceeding 30 nM.

Reference set, count: 8
CC(=O)Nc1cccc(C#Cc2cc(C(=O)Nc3cc(F)c(=O)n(CC(F)F)c3)sc2Cl)c1 [Compound 75c] :: T
CS(=O)(=O)c1cc(NC(=O)c2cc(F)c(Cl)s2)cn(CC(F)F)c1=O [Compound 11c] :: F
Cc1cc(C#Cc2cc(C(=O)Nc3cc(F)c(=O)n(CC(F)F)c3)sc2Cl)on1 [Compound 63c] :: F
N#Cc1sc(C(=O)Nc2cc(F)c(=O)n(CC(F)F)c2)cc1C#CC1COC1 [Compound 93c] :: F
CC(=O)Nc1cc(C#Cc2cc(C(=O)Nc3cc(F)c(=O)n(CC(F)F)c3)sc2Cl)ccn1 [Compound 143c] :: T
C[S+]([O-])c1cc(NC(=O)c2cc(F)c(Cl)s2)cn(CC(F)F)c1=O (stereo not shown) :: F
O=C(Nc1cc(F)c(=O)n(CC(F)F)c1)c1cc(C#CC2CCOC2)c(Cl)s1 (stereo not shown) [Compound 58c] :: F
Cn1ccc(C#Cc2cc(C(=O)Nc3cc(F)c(=O)n(CC(F)F)c3)sc2Cl)n1 [Compound 144c] :: T

Query block: Say whether its IC50 is strictly beneath 30 nM. Entry: O=C(Nc1cc(F)c(=O)n(CC(F)F)c1)c1cc(C#Cc2cccc3c2CNC3=O)c(Cl)s1 [Compound 137c]
Result block: F

Query block: Quick check: IC50 of O=C(Nc1cc(F)c(=O)n(CC(F)F)c1)c1cc(C#CC2COC2)c(C2CC2)s1 [Compound 94c] under 30 nM?
Result block: F

Query block: Could you please tell me whether IC50 recorded for O=C(Nc1cc(F)c(=O)n(CC(F)F)c1)c1sc(C(F)(F)F)cc1Cl [Compound 48c] is less than 30 nM?
Result block: F

Query block: IC50 under 30 nM? Item: O=C(Nc1cc(F)c(=O)n(CC(F)F)c1)c1cc(C2COC2)cs1 [Compound 36c]
Result block: F

Query block: Please let me know if O=C(Nc1cc(F)c(=O)n(CC(F)F)c1)c1cc(C#Cc2cccc(CO)c2)c(Cl)s1 [Compound 138c] shows IC50 below 30 nM.
Result block: T

* * *

tested on: various lung cancer cell lines; assay: Long term proliferation (LTP) assay in various cancer cell lines; format: cell-based; settings: Homo sapiens, MIA PaCa-2, MIAPACA2; Pancreatic Cancer ductal carcinoma
assayReadout: pIC50
The quantity pIC50 is defined as the negative base-10 logarithm of the molar concentration.

Query block: // fetch various lung cancer cell lines pIC50 for O=C(Nc1cc(F)c(=O)n(CC(F)F)c1)c1cc(Cl)c(C(F)(F)F)s1
Result block: 6.06

* * *

biological target: FL-SMARCA4 (Homo sapiens, UniProt P51532); assay: SMARCA4 ATPase activity assay (ADP-Glo, chicken mononucleosome substrate); details: FL-SMARCA4 IC50
Sequence (P51532 whole entry): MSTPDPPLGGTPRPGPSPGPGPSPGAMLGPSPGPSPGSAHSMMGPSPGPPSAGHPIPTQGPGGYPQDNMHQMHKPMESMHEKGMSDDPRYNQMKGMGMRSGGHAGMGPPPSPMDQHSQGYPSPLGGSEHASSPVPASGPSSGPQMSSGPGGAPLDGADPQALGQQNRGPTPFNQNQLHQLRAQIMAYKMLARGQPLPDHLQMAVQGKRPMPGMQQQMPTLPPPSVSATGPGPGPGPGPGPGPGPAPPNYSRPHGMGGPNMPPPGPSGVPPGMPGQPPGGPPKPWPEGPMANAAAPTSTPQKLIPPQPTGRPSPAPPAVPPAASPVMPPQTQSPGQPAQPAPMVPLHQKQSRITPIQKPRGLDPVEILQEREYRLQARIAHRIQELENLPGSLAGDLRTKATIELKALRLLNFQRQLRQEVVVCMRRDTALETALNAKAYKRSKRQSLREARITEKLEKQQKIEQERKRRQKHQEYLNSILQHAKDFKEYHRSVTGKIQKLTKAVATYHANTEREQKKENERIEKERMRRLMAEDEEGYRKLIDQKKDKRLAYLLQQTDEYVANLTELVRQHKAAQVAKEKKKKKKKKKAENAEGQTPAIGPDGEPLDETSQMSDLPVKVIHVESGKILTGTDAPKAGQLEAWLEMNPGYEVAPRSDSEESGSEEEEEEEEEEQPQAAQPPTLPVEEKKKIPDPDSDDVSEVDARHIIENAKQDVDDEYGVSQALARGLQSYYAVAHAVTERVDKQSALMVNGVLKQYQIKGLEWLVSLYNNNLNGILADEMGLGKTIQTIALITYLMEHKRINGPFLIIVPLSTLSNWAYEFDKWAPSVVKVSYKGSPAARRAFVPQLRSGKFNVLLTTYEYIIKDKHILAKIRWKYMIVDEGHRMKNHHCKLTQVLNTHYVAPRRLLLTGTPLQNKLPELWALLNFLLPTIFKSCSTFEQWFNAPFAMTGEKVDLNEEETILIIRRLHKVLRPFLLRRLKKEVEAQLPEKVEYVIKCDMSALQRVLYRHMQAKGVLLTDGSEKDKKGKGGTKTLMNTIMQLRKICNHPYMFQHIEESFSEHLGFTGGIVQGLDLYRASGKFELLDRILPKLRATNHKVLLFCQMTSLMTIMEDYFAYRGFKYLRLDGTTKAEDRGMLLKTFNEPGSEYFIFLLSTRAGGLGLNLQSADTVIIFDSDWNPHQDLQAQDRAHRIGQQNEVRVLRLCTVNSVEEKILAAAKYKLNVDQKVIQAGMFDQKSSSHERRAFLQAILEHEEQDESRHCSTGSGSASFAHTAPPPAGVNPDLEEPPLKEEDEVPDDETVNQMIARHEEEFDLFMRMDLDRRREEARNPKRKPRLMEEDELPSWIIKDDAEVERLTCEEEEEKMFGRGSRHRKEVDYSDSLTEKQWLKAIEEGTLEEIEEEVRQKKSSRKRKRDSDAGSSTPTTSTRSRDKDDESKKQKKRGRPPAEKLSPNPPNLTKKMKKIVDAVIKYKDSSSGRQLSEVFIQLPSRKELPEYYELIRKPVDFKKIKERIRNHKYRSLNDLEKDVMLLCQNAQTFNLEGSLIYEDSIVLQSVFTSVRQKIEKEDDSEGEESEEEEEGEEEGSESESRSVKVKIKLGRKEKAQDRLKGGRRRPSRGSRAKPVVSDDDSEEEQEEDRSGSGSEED
assayReadout: IC50 (µM)
Expressed in µM, but write only the number.

Examples from the recorded data:
O=C(Nc1cc(F)c(=O)n(CC(F)F)c1)c1cc(C#CC2CCCNC2)c(Cl)s1 (centres unmarked) [Compound 108d] :: 1.78
Cn1cc(C#Cc2cc(C(=O)Nc3cc(F)c(=O)n(CC(F)F)c3)sc2Cl)ccc1=O [Compound 60d] :: 0.0363
O=C(Nc1cc(F)c(=O)n(CC(F)F)c1)c1cc(C#CCn2cnnc2)c(Cl)s1 [Compound 126d] :: 4.37

Turning to the following molecule.
Query block: If you can, please state the reported IC50 value of O=C1C[C@@H](C#Cc2cc(C(=O)Nc3cc(F)c(=O)n(CC(F)F)c3)sc2Cl)CCN1 [Compound 62d] .
Result block: 0.0571
